Below, each of the molecules is paired with its reported Ki value.
# EXPERIMENTAL TARGET: L-type calcium channel (Rattus norvegicus, UniProt P22002)
# Construct: membrane fragments of rat cardiac muscle; from tissue; host or cells: rat cardiac muscle membranes
# Sequence (P22002 whole entry, other chains not shown, the tested form may be a part): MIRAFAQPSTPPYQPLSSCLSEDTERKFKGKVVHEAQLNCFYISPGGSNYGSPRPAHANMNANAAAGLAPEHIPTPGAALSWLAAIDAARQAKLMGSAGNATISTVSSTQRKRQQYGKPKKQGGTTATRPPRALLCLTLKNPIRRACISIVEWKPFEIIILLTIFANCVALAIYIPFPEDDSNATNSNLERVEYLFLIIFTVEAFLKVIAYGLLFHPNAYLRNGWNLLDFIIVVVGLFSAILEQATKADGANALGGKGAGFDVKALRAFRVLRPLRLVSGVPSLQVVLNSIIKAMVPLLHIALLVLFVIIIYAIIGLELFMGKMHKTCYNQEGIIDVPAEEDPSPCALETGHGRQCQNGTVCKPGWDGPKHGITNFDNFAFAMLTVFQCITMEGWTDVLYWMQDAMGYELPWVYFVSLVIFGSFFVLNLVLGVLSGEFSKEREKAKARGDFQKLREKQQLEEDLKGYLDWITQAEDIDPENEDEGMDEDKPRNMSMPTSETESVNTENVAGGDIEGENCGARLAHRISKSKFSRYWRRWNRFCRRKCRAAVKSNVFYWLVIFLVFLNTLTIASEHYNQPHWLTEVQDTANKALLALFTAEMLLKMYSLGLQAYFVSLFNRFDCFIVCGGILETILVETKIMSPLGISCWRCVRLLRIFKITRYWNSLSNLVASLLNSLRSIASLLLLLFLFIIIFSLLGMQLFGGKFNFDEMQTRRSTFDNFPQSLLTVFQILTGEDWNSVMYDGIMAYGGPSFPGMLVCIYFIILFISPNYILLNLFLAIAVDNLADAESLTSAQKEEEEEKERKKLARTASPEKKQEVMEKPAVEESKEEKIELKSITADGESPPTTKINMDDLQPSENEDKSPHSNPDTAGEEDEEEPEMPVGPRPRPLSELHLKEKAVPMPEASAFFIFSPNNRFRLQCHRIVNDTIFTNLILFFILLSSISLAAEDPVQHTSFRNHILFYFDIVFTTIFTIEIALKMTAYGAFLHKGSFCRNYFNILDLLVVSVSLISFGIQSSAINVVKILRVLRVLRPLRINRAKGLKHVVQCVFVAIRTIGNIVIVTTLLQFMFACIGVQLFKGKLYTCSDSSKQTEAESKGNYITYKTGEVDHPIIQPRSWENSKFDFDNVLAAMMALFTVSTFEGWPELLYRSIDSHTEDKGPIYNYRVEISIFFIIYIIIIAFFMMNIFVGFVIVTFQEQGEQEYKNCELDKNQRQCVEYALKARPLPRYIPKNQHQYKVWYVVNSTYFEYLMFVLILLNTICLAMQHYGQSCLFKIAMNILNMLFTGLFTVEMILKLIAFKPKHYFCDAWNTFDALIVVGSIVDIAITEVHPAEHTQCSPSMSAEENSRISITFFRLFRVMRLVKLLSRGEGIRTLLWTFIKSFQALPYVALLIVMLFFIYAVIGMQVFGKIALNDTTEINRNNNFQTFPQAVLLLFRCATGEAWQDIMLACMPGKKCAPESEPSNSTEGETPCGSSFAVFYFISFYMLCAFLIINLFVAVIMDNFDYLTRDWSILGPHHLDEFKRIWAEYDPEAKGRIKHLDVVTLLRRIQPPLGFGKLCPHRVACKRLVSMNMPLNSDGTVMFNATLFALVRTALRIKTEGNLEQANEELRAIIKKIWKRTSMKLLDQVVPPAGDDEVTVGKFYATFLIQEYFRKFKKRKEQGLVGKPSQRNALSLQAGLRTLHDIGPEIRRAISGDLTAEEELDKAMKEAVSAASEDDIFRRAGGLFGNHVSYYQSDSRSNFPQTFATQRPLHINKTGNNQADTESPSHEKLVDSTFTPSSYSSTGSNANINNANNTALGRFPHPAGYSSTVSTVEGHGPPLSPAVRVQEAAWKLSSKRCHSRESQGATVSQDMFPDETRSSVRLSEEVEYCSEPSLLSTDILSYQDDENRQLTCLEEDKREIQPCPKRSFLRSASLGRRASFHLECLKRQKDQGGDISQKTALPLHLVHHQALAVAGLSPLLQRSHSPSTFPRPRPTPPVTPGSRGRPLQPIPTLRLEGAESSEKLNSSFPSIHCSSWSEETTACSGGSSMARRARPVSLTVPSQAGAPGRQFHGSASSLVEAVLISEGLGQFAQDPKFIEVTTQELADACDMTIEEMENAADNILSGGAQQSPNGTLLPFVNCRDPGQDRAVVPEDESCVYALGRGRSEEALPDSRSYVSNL
# Sequence (P54290 25-944 partner limits assumed, other chains not shown): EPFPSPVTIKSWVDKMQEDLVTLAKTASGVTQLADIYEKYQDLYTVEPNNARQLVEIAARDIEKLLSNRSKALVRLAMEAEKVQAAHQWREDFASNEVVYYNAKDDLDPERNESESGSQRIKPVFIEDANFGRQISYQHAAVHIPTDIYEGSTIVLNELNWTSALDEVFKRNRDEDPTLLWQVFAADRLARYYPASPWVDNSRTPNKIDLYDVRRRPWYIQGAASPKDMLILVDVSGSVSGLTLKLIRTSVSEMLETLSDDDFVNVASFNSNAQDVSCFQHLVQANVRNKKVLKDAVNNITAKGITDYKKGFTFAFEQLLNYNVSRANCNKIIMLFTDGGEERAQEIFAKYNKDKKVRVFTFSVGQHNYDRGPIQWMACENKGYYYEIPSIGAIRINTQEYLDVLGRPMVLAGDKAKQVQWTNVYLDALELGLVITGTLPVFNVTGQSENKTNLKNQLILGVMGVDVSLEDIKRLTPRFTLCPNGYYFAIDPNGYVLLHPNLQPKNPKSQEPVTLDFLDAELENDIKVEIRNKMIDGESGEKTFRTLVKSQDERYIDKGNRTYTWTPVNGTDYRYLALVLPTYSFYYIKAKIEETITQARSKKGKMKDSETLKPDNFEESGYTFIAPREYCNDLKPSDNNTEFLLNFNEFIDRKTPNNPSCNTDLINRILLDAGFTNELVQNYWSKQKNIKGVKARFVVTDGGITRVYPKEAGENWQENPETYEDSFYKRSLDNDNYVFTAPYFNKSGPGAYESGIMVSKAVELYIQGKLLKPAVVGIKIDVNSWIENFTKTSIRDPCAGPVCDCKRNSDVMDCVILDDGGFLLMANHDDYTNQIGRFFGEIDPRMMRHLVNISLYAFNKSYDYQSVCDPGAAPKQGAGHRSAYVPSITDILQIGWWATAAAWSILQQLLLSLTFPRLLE
# Sequence (P54290 945-1091 partner limits assumed, other chains not shown): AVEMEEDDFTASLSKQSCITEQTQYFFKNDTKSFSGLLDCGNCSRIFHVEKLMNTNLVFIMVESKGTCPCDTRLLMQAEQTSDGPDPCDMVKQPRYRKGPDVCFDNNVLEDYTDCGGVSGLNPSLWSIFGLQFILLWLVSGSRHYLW
# TEST NAME: Competition binding of [3H]nitrendipine to membrane fragments of rat cardiac muscle
# EXPERIMENTAL CONDITIONS: [3H]nitrendipine, rat cardiac muscle membranes; SEM and n in lines below; read-out: pKi Ca (converted)
Give your result in µM as a bare value.

In one line, give reported Ki of the entry CC1=C(C(=O)NCCCN2CCC(c3ccccc3)(c3ccccc3)CC2)C(c2ccc([N+](=O)[O-])cc2)C2=C(CCCC2=O)N1 (stereo not shown) . 15.8
